# System: FM-MEL-6
# EXPERIMENTAL_DETAILS: drug sensitivity score (DSS) (DSS (unitless, 0-50 scale)); higher = more sensitive (stronger viability inhibition); extreme values may be limits of the assay
# CONDITION_CONTEXT: 72 h; culture: 2D

{"COMPOUND": "CC/C(=C(\\c1ccccc1)c1ccc(OCCN(C)C)cc1)c1ccccc1 [Tamoxifen]", "drug sensitivity score": 4.4}
{"COMPOUND": "C[C@]12C=CC(=O)C=C1CC[C@@H]1[C@@H]2[C@@H](O)C[C@@]2(C)[C@H]1CC[C@]2(O)C(=O)CO [Prednisolone]", "drug sensitivity score": 0}
{"COMPOUND": "CC(C)(C)c1nc(-c2cccc(NS(=O)(=O)c3c(F)cccc3F)c2F)c(-c2ccnc(N)n2)s1 [Dabrafenib]", "drug sensitivity score": 0}
{"COMPOUND": "COc1cc(OC)cc(N(CCNC(C)C)c2ccc3ncc(-c4cnn(C)c4)nc3c2)c1 [Erdafitinib]", "drug sensitivity score": 0}
{"COMPOUND": "CNC(=O)c1ccc(-c2cnc3ncc(Cc4ccc5ncccc5c4)n3n2)cc1F [Capmatinib]", "drug sensitivity score": 0}
{"COMPOUND": "CC[C@@H]1C(=O)OC[C@@H]1Cc1cncn1C [Pilocarpine]", "drug sensitivity score": 0}
{"COMPOUND": "C/C(=C\\c1csc(C)n1)[C@@H]1C[C@@H]2O[C@]2(C)CCC[C@H](C)[C@H](O)[C@@H](C)C(=O)C(C)(C)[C@@H](O)CC(=O)N1 [Ixabepilone]", "drug sensitivity score": 3.7}
{"COMPOUND": "CC(C)C(=O)Nc1ccc([N+](=O)[O-])c(C(F)(F)F)c1 [Flutamide]", "drug sensitivity score": 0}
{"COMPOUND": "O=C(Nc1cc(Oc2cc(F)c(NC(=O)C3(C(=O)Nc4ccc(F)cc4)CC3)cc2F)ccn1)C1CC1 [Altiratinib]", "drug sensitivity score": 7.7}
{"COMPOUND": "Cc1cc(Nc2ncc(Cl)c(Nc3ccccc3S(=O)(=O)C(C)C)n2)c(OC(C)C)cc1C1CCNCC1 [Ceritinib]", "drug sensitivity score": 2.6}
{"COMPOUND": "CC(C)Cn1cnc2c(N)nc3ccccc3c21 [Imiquimod]", "drug sensitivity score": 0}
{"COMPOUND": "Cc1cc(OCc2nnc(SC3CCCC3)n2-c2cccnc2)ccc1-c1ccc(S(C)(=O)=O)cc1 [NMS-873]", "drug sensitivity score": 5}
{"COMPOUND": "O=C1CCC(N2C(=O)c3ccccc3C2=O)C(=O)N1 (configuration not stated) [Thalidomide]", "drug sensitivity score": 0}
{"COMPOUND": "CC(C)(C)c1cnc(CSc2cnc(NC(=O)C3CCNCC3)s2)o1 [SNS-032]", "drug sensitivity score": 26.1}
{"COMPOUND": "CCOC(=O)CCNc1cc(N2CCc3ccccc3CC2)nc(-c2ccccn2)n1 [GSK-J4]", "drug sensitivity score": 1.3}
{"COMPOUND": "Cc1cnc(Nc2ccc(OCCN3CCCC3)cc2)nc1Nc1cccc(S(=O)(=O)NC(C)(C)C)c1 [Fedratinib]", "drug sensitivity score": 3.1}
{"COMPOUND": "O=C(O)C(=O)O.[NH-][C@@H]1CCCC[C@H]1[NH-].[Pt+2] [Oxaliplatin]", "drug sensitivity score": 11.7}
